B1: Azoarcus group I ribozyme (parent)
chain: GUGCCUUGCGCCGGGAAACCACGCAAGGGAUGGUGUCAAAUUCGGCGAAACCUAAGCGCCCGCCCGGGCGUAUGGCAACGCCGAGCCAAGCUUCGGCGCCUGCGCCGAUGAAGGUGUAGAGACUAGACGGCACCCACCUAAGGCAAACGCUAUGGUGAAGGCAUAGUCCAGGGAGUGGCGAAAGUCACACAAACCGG

Variants of: B1
Experiment: reverse-splicing fitness (ratio to wild type); higher = more active; in vitro selection; Mg2+ level not given
Entry flag: fulfilled if reverse-splicing fitness reaches 0.006; not fulfilled if it does not.

Take a look at these entries with their results.
Inquiry: Can C82G A111C A145C C169U U176A be said to have reverse-splicing fitness at or above 0.006?
Reply text: fulfilled

Inquiry: Could you tell me if the measured reverse-splicing fitness of C82A A111G A145G C150G C169U reaches 0.006 or more?
Reply text: fulfilled

Moving on to another variant below.
Inquiry: Tell me whether reverse-splicing fitness is at least 0.006 here: C82U A111C A120U A145C C150G C169U U176C
Reply text: not fulfilled
